system: L. major promastigotes; assay: L. major promastigote drug susceptibility assay (alamar blue, 384-well); type: cell-based, Leishmania major; settings: Leishmania major, read-out: EC50 Ave ± SD, Lm
In this section we review reported pEC50 values for a set of molecules.
Lab note — pEC50 values are minus log10 of concentrations in M.

Param item = Cc1ccc(S(=O)(=O)c2ccc(Oc3cccc(C)c3)cc2)cc1 [CID 786799] ; retrieve measured pEC50.
6.74

Quick one: CC(C)(C)c1ccc(C(=O)C2CCCN(C3CCC3)C2)cc1 (stereo not shown) [CID 16187595]
7.85

Quick one: NC(=O)c1cn([C@@H]2O[C@H](CO)[C@@H](O)[C@H]2O)c2ncnc(N)c12 [Sangivamycin, reference compound]
6.79

Quick one: CN(C)CCOc1ccccc1Cc1ccccc1 [Phenytoloxamine, reference compound]
6.30
